biological target: Human immunodeficiency virus type 1 integrase (Human immunodeficiency virus 1); assay: Inhibition of HIV1 integrase strand transfer activity
experimental.readout: IC50 (µM)

1) O=C(O)/C(O)=C/C(=O)c1cccc(NC(=O)c2ccc(O)cc2)c1; 13
2) COc1cc(/C=C/C(=O)Nc2cccc(C(=O)/C=C(\O)C(=O)O)c2)ccc1O; 11
3) COc1ccccc1C(=O)Nc1cccc(C(=O)/C=C(\O)C(=O)O)c1; 13

[I] O=C(O)/C(O)=C/C(=O)c1cccc(NC(=O)c2ccccc2)c1
[II] O=C(/C=C/c1ccc(O)cc1)Nc1cccc(C(=O)/C=C(\O)C(=O)O)c1
[III] O=C(O)/C(O)=C/C(=O)c1cccc(NC(=O)c2cc([N+](=O)[O-])cc([N+](=O)[O-])c2O)c1
[IV] O=C(O)/C(O)=C/C(=O)c1cccc(NC(=O)c2cccc(Cl)c2)c1
Enquiry: Put the items in sequence by IC50, from largest down. Response field: labels, in requested order.
Return: I, IV, II, III

---

target: Human immunodeficiency virus type 1 integrase (Human immunodeficiency virus 1, UniProt Q7ZJM1); assay: Inhibition of HIV1 integrase strand transfer activity
Sequence (Q7ZJM1 whole entry): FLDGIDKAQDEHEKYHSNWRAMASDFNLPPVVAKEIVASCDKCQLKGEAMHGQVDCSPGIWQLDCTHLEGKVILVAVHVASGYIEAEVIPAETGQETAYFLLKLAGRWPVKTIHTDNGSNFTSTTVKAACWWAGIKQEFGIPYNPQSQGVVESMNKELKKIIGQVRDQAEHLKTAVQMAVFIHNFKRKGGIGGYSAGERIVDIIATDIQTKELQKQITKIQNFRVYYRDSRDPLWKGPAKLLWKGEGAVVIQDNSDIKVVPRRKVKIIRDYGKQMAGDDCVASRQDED
experimental.readout: IC50 (µM)

1. O=C(Cc1ccccc1)Nc1cccc(C(=O)/C=C(\O)C(=O)O)c1; 7
2. COc1ccc(C(=O)Nc2cccc(C(=O)/C=C(\O)C(=O)O)c2)cc1; 19
3. O=C(/C=C/c1ccc(Cl)cc1)Nc1cccc(C(=O)/C=C(\O)C(=O)O)c1; 4

[I] Cc1cccc(C(=O)Nc2cccc(C(=O)/C=C(\O)C(=O)O)c2)c1O
[II] O=C(O)/C(O)=C/C(=O)c1cccc(NC(=O)c2ccco2)c1
[III] O=C(O)/C(O)=C/C(=O)c1cccc(NC(=O)c2ccccc2Cl)c1
[IV] O=C(/C=C/c1ccc(F)cc1)Nc1cccc(C(=O)/C=C(\O)C(=O)O)c1
Enquiry: Put the compounds in ascending order of IC50. Response field: labels, in requested order.
Return: IV, I, III, II

---

molecular target: Human immunodeficiency virus type 1 integrase (Human immunodeficiency virus 1); assay: Inhibition of HIV1 integrase 3' processing activity
experimental.readout: IC50 (µM)

1. O=C(Cc1ccccc1)Nc1cccc(C(=O)/C=C(\O)C(=O)O)c1; 56

[A] O=C(O)/C(O)=C/C(=O)c1cccc(NC(=O)c2cc([N+](=O)[O-])cc([N+](=O)[O-])c2O)c1
[B] COc1ccc(C(=O)Nc2cccc(C(=O)/C=C(\O)C(=O)O)c2)cc1
Enquiry: Sort A and B by IC50 descending and give the first. Answer by quoting the chosen item's label.
Return: B
(B: 95 µM, A: 8 µM)

[P] COc1cc(/C=C/C(=O)Nc2cccc(C(=O)/C=C(\O)C(=O)O)c2)ccc1O
[Q] COc1ccccc1C(=O)Nc1cccc(C(=O)/C=C(\O)C(=O)O)c1
Enquiry: Sort P and Q by IC50 descending and give the first. Answer by quoting the chosen item's label.
Return: Q

[I] O=C(/C=C/c1ccc(O)cc1)Nc1cccc(C(=O)/C=C(\O)C(=O)O)c1
[II] O=C(O)/C(O)=C/C(=O)c1cccc(NC(=O)c2cccc(Cl)c2)c1
[III] O=C(O)/C(O)=C/C(=O)c1cccc(NC(=O)c2ccccc2Cl)c1
[IV] O=C(/C=C/c1ccc(Cl)cc1)Nc1cccc(C(=O)/C=C(\O)C(=O)O)c1
Enquiry: Put the items in sequence by IC50, from largest down. Response field: labels, in requested order.
Return: III, II, I, IV
(III: 92 µM, II: 57 µM, I: 26 µM, IV: 18 µM)

[a] O=C(O)/C(O)=C/C(=O)c1cccc(NC(=O)c2ccc(O)cc2)c1
[b] COc1ccc(/C=C/C(=O)Nc2cccc(C(=O)/C=C(\O)C(=O)O)c2)cc1
Enquiry: Sort a and b by IC50 descending and give the first. Answer by quoting the chosen item's label.
Return: a

[A] Cc1cccc(C(=O)Nc2cccc(C(=O)/C=C(\O)C(=O)O)c2)c1O
[B] COc1cccc(C(=O)Nc2cccc(C(=O)/C=C(\O)C(=O)O)c2)c1
[C] O=C(/C=C/c1ccc(F)cc1)Nc1cccc(C(=O)/C=C(\O)C(=O)O)c1
Enquiry: Put the items in sequence by IC50, from largest down. Response field: labels, in requested order.
Return: B, A, C
(B: 69 µM, A: 48 µM, C: 22 µM)
